Would you kindly list huEGFR+ mcl-1-/- MEF EC50 for each of these binders?
# measured_on: human EGFR (huEGFR) over-expressed on mcl-1-/- mouse embryonic fibroblasts (human, UniProt P00533 25-1210)
# assay_notes: cell-based or functional assay
The response must be a number in nM with no trailing unit.

Recorded huEGFR+ mcl-1-/- MEF EC50 of AbK-AAD (antibody, human IgG1, kappa, V domains shown, synthon AAD on reduced interchain cysteines; average DAR 2.8 per ADC) VH: EVQLQESGPGLVKPSQTLSLTCTVSGYSISRDFAWNWIRQPPGKGLEWMGYISYNGNTRYQPSLKSRITISRDTSKNQFFLKLNSVTAADTATYYCVTASRGFPWWGQGTLVTVSS VL: DIQMTQSPSSMSVSVGDRVTITCHSSQDITYNVGWLQQKPGKSFKGLIYHGSNLDHGVPSRFSGSGSGTDYTLTISSLQPEDFATYYCVQYDDFPWTFGGGTKLEIKR , please.
0.4

Dear colleague, I am looking for the recorded huEGFR+ mcl-1-/- MEF EC50 of the following binder: AbG-CZ (antibody, human IgG1, kappa, V domains shown, synthon CZ on reduced interchain cysteines; average DAR 3.4 per ADC) VH: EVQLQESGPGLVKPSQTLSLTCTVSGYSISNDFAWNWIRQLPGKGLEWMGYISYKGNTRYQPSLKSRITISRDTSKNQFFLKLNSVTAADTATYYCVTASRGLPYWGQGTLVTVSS VL: DIQMTQSPSSMSVSVGDRVTITCHSSQDITYNIGWLQQKPGKSFKGLIYHGANLDDGVPSRFSGSGSGTDYTLTISSLQPEDFATYYCVQYDEFPWTFGGGTKLEIKR
3.4

Would you kindly share the measured huEGFR+ mcl-1-/- MEF EC50 for AbB-ZT (antibody, human IgG1, kappa, V domains shown, synthon ZT on reduced interchain cysteines; average DAR 1.4 per ADC) VH: EVQLQESGPGLVKPSQTLSLTCTVSGYSISNDFAWNWIRQPPGKGLEWMGYISYKGNTRYQPSLKSRITISRDTSKNQFFLKLNSVTAADTATYYCVTASRGFPWWGQGTLVTVSS VL: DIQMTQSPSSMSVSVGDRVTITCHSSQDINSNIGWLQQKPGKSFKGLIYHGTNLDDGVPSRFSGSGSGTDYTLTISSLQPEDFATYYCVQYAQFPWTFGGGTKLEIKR ?
8.9
